Target: T1, his-tagged human CDH6 extracellular region protein (hCDH6 ECD-his) (human, UniProt P55285 19-615)
T1 construct: also called Human CDH6-his; hCDH6-his; not shown: his tag
T1 sequence: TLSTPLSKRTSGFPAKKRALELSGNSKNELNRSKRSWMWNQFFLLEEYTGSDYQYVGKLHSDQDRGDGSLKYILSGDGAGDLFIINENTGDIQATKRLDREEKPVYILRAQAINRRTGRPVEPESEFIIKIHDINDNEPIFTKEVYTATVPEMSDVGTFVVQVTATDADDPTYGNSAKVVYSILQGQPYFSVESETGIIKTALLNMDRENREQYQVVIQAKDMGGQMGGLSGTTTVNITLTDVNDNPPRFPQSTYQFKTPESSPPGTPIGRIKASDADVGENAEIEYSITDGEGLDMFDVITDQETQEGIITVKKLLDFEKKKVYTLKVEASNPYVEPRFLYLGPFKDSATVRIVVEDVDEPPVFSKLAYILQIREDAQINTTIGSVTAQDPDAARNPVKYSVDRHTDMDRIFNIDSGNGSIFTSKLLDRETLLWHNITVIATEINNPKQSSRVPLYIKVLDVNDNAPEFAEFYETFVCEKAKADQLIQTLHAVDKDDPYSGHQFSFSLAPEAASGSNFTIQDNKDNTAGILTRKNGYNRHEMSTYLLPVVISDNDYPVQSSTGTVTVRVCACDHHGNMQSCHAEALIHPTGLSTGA
Test: SPR Biacore 8K, antibody captured on Protein A
TEST READOUT: koff (s⁻¹)
Kindly answer with a numeric value in s⁻¹, unit omitted.

Some binders with known koff results, for comparison:
CHI-CDH6-13 (antibody, human IgG1, kappa, V domains shown, also called chimeric antibody of murine CDH6-13) VH: DVQLQESGPGLVKPSQSLSLTCSVTGYSITKDSYWNWIRQFPGSKLEWMGFISYDGSRHYNPSLKNRISITRDTSKNQFFLQLNSVTTEDTATYYCARRDYADYWGQGTTLTVSS VL: QIVLTQSPALMSAFPGEKVTMTCSATSSVSYIYWYQQKPRSSPKPWIYLTSNLASGVPARFSGSGSGTSYSLTINSLEAEDAATYYCQQWSSIPYTFGGGTKLEIKR	0.00184
CHI-CDH6-6 (antibody, human IgG1, kappa, V domains shown, also called CHI-hCDH6-6; chimeric antibody of murine CDH6-6) VH: EVQLQQSGPELVKPGDSVKMSCKASGYTFTDYYMAWVRQSHRKSLEWIGYIFPNSGGTDYSQKFKGKATLTVDKSSSTVYMELHSLTSEDSAVYYCARELGADYGDYYAMDHWGQGTSVSVSS VL: DIQMTQSPASLSASVGETVTITCRASENIDSYLAWYQQKQGKSPQLLVYSATLLADGVPSRFSGSGSGTQYSLKINSLKSEDVARYYCQHYYRTPPTFGSGTKLEIKR	0.00508
NOV0712 (antibody, human IgG1, kappa, V domains shown, Positive control, variable regions from WO2018212136A1; also called positive control anti-human CDH6 antibody) VH: QVQLLESGGGLVQPGGSLRLSCAASGFTFSSHGMHWVRQAPGKGLEWVSVISGSGSNTGYADSVKGRFTISRDNSKNTLYLQMNSLRAEDTAVYYCARQWGSYAFDSWGQGTLVTVSS VL: DIQMTQSPSSLSASVGDRVTITCRASQSISSYLNWYQQKPGKAPKLLIYAVSTLQSGVPSRFSGSGSGTDFTLTISSLQPEDFATYYCQQSGTFPPTTFGQGTKVEIKR	0.00267

Now for a further binder.
Q: // query koff value for entry CHI-CDH6-9 (antibody, human IgG1, kappa, V domains shown, also called chimeric antibody of murine CDH6-9) VH: QVQLQQPGAELVKPGASVKLSCKASGYTFTGYWMHWVRQRPGQGLEWIGEINPNNGGTNCNEQFKNKATLTVDKSSSTAYMQLSSLTSEDSAVFYCTISFGNYLFFDVWGAGTTVTVSS VL: DIQMTQSPASLAASVGETITITCQASENIYFSLAWYQQKQGKSPQLLIYNANTLEDGVPSRFVGSGSGTQYSMKINSIQPEDTATYFCDQTYDFPWTFGGGTKLEIKR
Result: 0.00159
